Each record here notes measured IC50.
# Test system: Trypanosoma
# TEST SUMMARY: Anti-trypanosomal activity against Trypanosoma
# Format: functional, organism-based

COc1ccc(/C=C/C(=O)O)cc1 [4-METHOXYCINNAMIC ACID]	> 600 µM

What does the data say about its IC50? Entry: COc1cc(/C=C/C(=O)O)cc(OC)c1OC [SINAPIC ACID METHYL ETHER]
> 600 µM

Also COc1ccc(/C=C/C(=O)O)c(OC)c1 , if possible.
> 600 µM
